Assay read-out IC50; system under study: CYP2C19 (Homo sapiens, UniProt P33261).
Sequence (P33261 whole entry): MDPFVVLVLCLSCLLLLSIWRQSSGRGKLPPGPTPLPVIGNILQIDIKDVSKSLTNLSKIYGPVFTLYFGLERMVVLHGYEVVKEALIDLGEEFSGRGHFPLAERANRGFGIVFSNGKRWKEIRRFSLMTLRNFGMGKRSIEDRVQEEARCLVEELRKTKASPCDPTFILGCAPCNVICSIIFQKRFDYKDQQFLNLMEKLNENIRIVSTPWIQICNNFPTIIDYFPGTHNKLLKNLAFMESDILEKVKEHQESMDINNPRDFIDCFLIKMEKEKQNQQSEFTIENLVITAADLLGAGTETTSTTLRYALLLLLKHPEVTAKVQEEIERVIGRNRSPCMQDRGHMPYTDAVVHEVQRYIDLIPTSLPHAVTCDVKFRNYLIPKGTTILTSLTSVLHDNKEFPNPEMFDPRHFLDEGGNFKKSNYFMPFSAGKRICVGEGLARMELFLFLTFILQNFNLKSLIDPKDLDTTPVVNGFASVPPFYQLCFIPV

**Q:** IC50 for COc1ncnc2[nH]cc(Cc3ccc(Nc4ccc(C5CC5)nc4)nc3F)c12 [Compound P-4004] ?
**A:** > 10 µM

**Q:** // IC50 lookup, key: CC(C)Nc1ncnc2[nH]cc(C(=O)c3ccc(NC4CCCCC4)nc3Cl)c12 [Compound P-4109]
**A:** 5 to 10 µM

**Q:** Would you mind telling me what IC50 value was observed for CNc1ncnc2[nH]cc(C(=O)c3cnc(NC4CCC(F)(F)CC4)c(F)c3)c12 [Compound P-4054] ?
**A:** > 10 µM

**Q:** I'd like to know its IC50. The compound in question is CCOc1ccc(Nc2ccc(Cc3c[nH]c4ncnc(C)c34)c(F)n2)cn1 [Compound P-4006]
**A:** > 10 µM

**Q:** Consider the compound Cc1cnc2[nH]cc(Cc3ccc(Nc4ccc(C5CC5)nc4)nc3F)c2c1 [Compound P-3050] and give its measured IC50.
**A:** > 10 µM

**Q:** IC50 lookup needed for COc1ccc(Nc2ccc(C(=O)c3c[nH]c4ncnc(NC5CCC5)c34)c(F)n2)cn1 [Compound P-4076] , thanks.
**A:** 5 to 10 µM

***
**Q:** I have this compound here, CNc1ncnc2[nH]cc(C(=O)c3ccc(Nc4cncc(OC)c4)nc3F)c12 [Compound P-4108] , and I need its recorded IC50.
**A:** < 5 µM

**Q:** Would you kindly share the measured IC50 for CCOc1ccc(Nc2ccc(Cc3c[nH]c4ncnc(OCCOC)c34)c(F)n2)cn1 [Compound P-4008] ?
**A:** > 10 µM
